Assay: acute toxicity in mice (LD 50)
Assay type: in vivo
Details: mouse, in vivo, iv, intravenous administration, read-out: LD 50 (Lethal Dose) i.v.
Structures can show the parent of a compound that is named as a salt.
quantity-name: LD50

// query What LD50 value was documented for this molecule, CC1(C)S[C@@H]2[C@H](NC(=O)[C@H](N)c3ccc(O)cc3)C(=O)N2[C@H]1C(=O)O [X, choline salt of amoxicillin] ?
// result 250 to 500 mg/kg

Source of measurements: patent US4005214A
